# Tested on: Wild Buckwheat
# methodNotes: post-emergent herbicidal test; note: ranges in brackets are in %
# Assay type: in vivo
# details: Q; 1.12 kg/h; 4 WAT
# Protocol: The post-emergent tests were conducted as follows: The herbicidal active ingredients are applied in spray form to two or three-week old specimens of various plant species. The spray, a solution or wettable powder suspension containing the appropriate rate of herbicidal active ingredient to give the desired test rate and a surfactant, is applied to the plants. The treated plants are placed in a greenhouse and approximately two or four weeks later the effects are observed and recorded. […]

# molecule, post-emergent herbicidal rating
records = [
    ("COC(=N)Cn1c(=O)sc2ccccc21 [Compound 24]", "4 (100)"),
    ("COC(=N)Cn1c(=O)sc2ccccc21 [Compound 11]", "2 (50-74)"),
    ("COC(=N)Cn1c(=O)sc2ccccc21 [Compound 37]", "2 (50-74)"),
    ("COC(=N)Cn1c(=O)sc2ccc(Cl)cc21", "3 (75-99)"),
    ("CCOC(=N)Cn1c(=O)sc2ccccc21", "2 (50-74)"),
    ("COC(=N)Cn1c(=O)sc2ccccc21 [Compound 38]", "2 (50-74)"),
]

====

We begin with a simple list: items and their reported post-emergent herbicidal rating.
# System: Soybean
# methodNotes: post-emergent herbicidal test; note: ranges in brackets are in %
# Type: in vivo
# details: L; 1.12 kg/h; 4 WAT
experimentalEndpoint: post-emergent herbicidal rating

# molecule, testResult
rows = [
    ("CCOC(=N)Cn1c(=O)sc2ccccc21", "1 (25-49)"),
    ("COC(=N)Cn1c(=O)sc2ccccc21 [Compound 37]", "1 (25-49)"),
    ("COC(=N)Cn1c(=O)sc2ccccc21 [Compound 38]", "1 (25-49)"),
    ("COC(=N)Cn1c(=O)sc2ccc(Cl)cc21", "2 (50-74)"),
    ("COC(=N)Cn1c(=O)sc2ccccc21 [Compound 11]", "1 (25-49)"),
    ("COC(=N)Cn1c(=O)sc2ccccc21 [Compound 24]", "2 (50-74)"),
]

====

# System: Wild Buckwheat
# methodNotes: post-emergent herbicidal test; note: ranges in brackets are in %
# Type: in vivo
# details: Q; 5.6 kg/h; 4 WAT
We begin with a simple list: items and their reported post-emergent herbicidal rating.
experimentalEndpoint: post-emergent herbicidal rating

# molecule, assayedTarget, experimentalEndpoint, testResult
rows = [
    ("COC(=N)Cn1c(=O)sc2ccccc21 [Compound 24]", "Wild Buckwheat", "post-emergent herbicidal rating", "4 (100)"),
    ("COC(=N)Cn1c(=O)sc2ccc(Cl)cc21", "Wild Buckwheat", "post-emergent herbicidal rating", "4 (100)"),
    ("COC(=N)Cn1c(=O)sc2ccccc21 [Compound 11]", "Wild Buckwheat", "post-emergent herbicidal rating", "4 (100)"),
    ("CCOC(=N)Cn1c(=O)sc2ccccc21", "Wild Buckwheat", "post-emergent herbicidal rating", "3 (75-99)"),
    ("COC(=N)Cn1c(=O)sc2ccccc21 [Compound 37]", "Wild Buckwheat", "post-emergent herbicidal rating", "4 (100)"),
]

====

# System: Rice
# methodNotes: pre-emergent herbicidal test; note: ranges in brackets are in %
# Assay type: in vivo
# details: O; 5.6 kg/h; 4 WAT
We begin with a simple list: items and their reported pre-emergent herbicidal rating.

# molecule, assayedTarget, pre-emergent herbicidal rating
rows = [
    ("COC(=N)Cn1c(=O)sc2ccccc21 [Compound 24]", "Rice", "1 (25-49)"),
    ("COC(=N)Cn1c(=O)sc2cc(Br)ccc21 [Compound 33]", "Rice", "0 (0-24)"),
    ("CCCOC(=N)Cn1c(=O)sc2ccccc21 [Compound 30]", "Rice", "1 (25-49)"),
    ("COC(=N)Cn1c(=O)sc2ccccc21 [Compound 11]", "Rice", "0 (0-24)"),
    ("CCOC(=N)Cn1c(=O)sc2ccccc21 [Compound 25]", "Rice", "1 (25-49)"),
]
